target: protein-protein interaction between Kras and SOS1 (biotin-tagged human Kras loaded with GDP, His-tagged human SOS1) (Homo sapiens (Human), UniProt P01116, G12D); assay: Protein-protein interaction inhibition between Kras and SOS1 (KrasG12D-SOS PPI) using AlphaScreen; assay type: biochemical; conditions: AlphaScreen; biotin-tagged human Kras loaded with GDP, His-tagged human SOS1; read-out: KRAS G12D-SOS PPI IC50;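 note: kras produced in E. coli, Ni-coupled donor beads and streptavidin acceptor beads, excitation 680 nm with emission detected at 520–620 nm via singlet oxygen transfer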
Bridge positions count the residues as written; N and C are the ends. Square brackets hold non-standard residues; d marks the D form. Peptide text beside a SMILES is read from it. * marks the point of attachment. hPhe(3-Cl-4-CF3) = N[C@@H](CCc1ccc(C(F)(F)F)c(Cl)c1)C(=O)O; NMeGly(cBu) = CN[C@H](C(=O)O)C1CCC1; NMeCha = CN[C@@H](CC1CCCCC1)C(=O)O; NMeD = CN[C@@H](CC(=O)O)C(=O)O; NMeL = CN[C@@H](CC(C)C)C(=O)O; NMeV = CN[C@H](C(=O)O)C(C)C; Piperidide = C1CCN(*)CC1; Ac5c = NC1(C(=O)O)CCCC1; Aze = O=C(O)[C@@H]1CCN1; Sar = CNCC(=O)O
PROPERTY_NAME: IC50 (nM)

>>> obs_value("CC[C@H](C)[C@@H]1NC(=O)[C@H](CC(C)C)N(C)C(=O)C[C@@H](C(=O)N2CCCCC2)N(C)C(=O)[C@H](C(C)C)N(C)C(=O)C2(CCCC2)NC(=O)[C@@H]2CCCN2C(=O)[C@H](CCc2ccc(C(F)(F)F)c(Cl)c2)NC(=O)CN(C)C(=O)[C@H](CC2CCCCC2)N(C)C(=O)[C@@H]2CCN2C(=O)[C@H](C2CCC2)N(C)C1=O [Compound 1554] ([NMeL]I[NMeGly(cBu)][Aze][NMeCha][Sar][hPhe(3-Cl-4-CF3)]P[Ac5c][NMeV][NMeD]-Piperidide; lactam N-11)")
200
